Attribution: patent US20230235029A1

Biological target: T1, RAVV GP on rVSV pseudotype (VSV-MARV RAVV GP) (Ravn virus, UniProt Q1PDC7 19-681)
T1 sequence: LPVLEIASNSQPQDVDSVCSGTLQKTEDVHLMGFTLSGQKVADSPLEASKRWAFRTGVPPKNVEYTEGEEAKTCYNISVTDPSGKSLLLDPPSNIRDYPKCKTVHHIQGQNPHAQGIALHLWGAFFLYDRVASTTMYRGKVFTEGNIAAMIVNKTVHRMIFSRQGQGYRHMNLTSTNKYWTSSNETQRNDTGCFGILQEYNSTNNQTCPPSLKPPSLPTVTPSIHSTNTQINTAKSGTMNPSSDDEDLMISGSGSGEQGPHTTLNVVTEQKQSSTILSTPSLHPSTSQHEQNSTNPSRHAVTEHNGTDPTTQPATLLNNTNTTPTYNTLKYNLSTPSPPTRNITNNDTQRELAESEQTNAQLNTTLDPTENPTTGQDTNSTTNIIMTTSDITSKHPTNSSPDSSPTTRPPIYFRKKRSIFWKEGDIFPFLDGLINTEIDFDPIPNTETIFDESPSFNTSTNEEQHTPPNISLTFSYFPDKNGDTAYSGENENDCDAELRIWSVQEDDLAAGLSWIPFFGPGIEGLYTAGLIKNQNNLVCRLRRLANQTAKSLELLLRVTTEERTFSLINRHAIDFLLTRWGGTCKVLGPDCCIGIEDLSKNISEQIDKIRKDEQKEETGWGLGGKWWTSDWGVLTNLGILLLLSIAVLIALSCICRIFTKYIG
Assay: cell-based or functional assay
measured.attribute: NT50 (µg/mL)
# number only, unit µg/mL dropped from output

Assign NT50 to the following record: R13 (antibody, V domains shown) VH: EVQLVESGAGLVQPGGSLRLSCAASGFTFSNSWMTWVRQAPGKGLEWLARIKRKADGETADYAASVKGRFTISRDDSKNTLYLQMNSLKTEDTAVYYCTTYNWNFNFDFWGQGVLVTVSS VL: DIQMTQSPSSLSASVGDRVTITCRASQDISPYLNWYQQKPGKAPKLLIYYGNRLESGVPSRFSGSGSGTDLTLTISSLQPEDFATYYCQQYYRLPLTFGGGTKVETK
0.07

Assign NT50 to the following record: R18 (antibody, V domains shown) VH: QVQLQESGPGLVKASETLSLTCAVSGASISSYWWNWIRLSPGKGLEWIGEIYGYSGSTSYKSSLKSRVSISRDASKNQFSLKLTSVTAADTAVYYCARDPLNHDAFDFWGRGLRVTVSS VL: QSALTQPPSVSGSPGQSVTISCAGTSSDIGGYTYVSWYQQHPGKAPKLMIYDVNERPSGVSDRFSGSISGNTASLTISGLQAEDEADYYCSSYAGSKTVLFGGGTRLSVL
0.18
